- system_tested: Autotaxin (Rattus norvegicus)
- protocol_summary: Inhibition of ATX in rat plasma assessed as inhibition of LPA production after 2 hrs by LC-MS/MS analysis
reported_property: IC50

Quick one: IC50 of CCc1nc2c(C)cc(N3CCN(CC(=O)N4CC(O)C4)CC3)cn2c1N(C)c1nc(-c2ccc(F)cc2)c(C#N)s1 [ZIRITAXESTAT] ? ≥ 500 nM

---

- system_tested: Autotaxin (Homo sapiens)
- protocol_summary: Mixed-type inhibition of human recombinant ATX using FS3 as substrate assessed as enzyme-substrate-inhibitor complex incubated for 2 hrs by Michaelis-Menten equation analysis
reported_property: pKi
Give bare numbers, as −log10 of the molar value.

# query: pKi of entry `CCCCCCCCCCCCCCc1ccc(CP(=O)(O)O)cc1` 6.55

---

- system_tested: Autotaxin (Homo sapiens, UniProt Q13822)
- protocol_summary: Inhibition of recombinant ATX in human Hep3B cells using lysophosphatidylcholine as substrate preincubated for 15 mins followed by substrate addition measured after 1.5 to 3 hrs by choline release assay
- Assay type: cell-based, Hep 3B2
reported_property: IC50

Which value of IC50 has been reported for `N#C/C(=C\c1nn(Cc2ccc(F)cc2)c2cc(Cl)ccc12)c1ccc(C(=O)O)cc1` in the records? < 500 nM

---

- system_tested: Autotaxin (Homo sapiens)
- protocol_summary: Inhibition of human recombinant ATX using FS3 as substrate incubated for 2 hrs by fluorescence assay
reported_property: pIC50
Numbers only, as −log10 of the molar value.

Would you mind telling me what pIC50 value was observed for `CCCCCCCCCCCCCCc1ccc(CP(=O)(O)O)cc1` ? 6.77

---

- system_tested: Autotaxin (Mus musculus, UniProt Q9R1E6)
- protocol_summary: Inhibition of recombinant mouse ATX using lysophosphatidylcholine as substrate by choline release assay
reported_property: IC50
Lab note: write values as number then unit, every time.

GET /values?readout=IC50&system=Autotaxin (Mus musculus, UniProt Q9R1E6)&item= `CCc1nc2c(C)cc(N3CCN(CC(=O)N4CC(O)C4)CC3)cn2c1N(C)c1nc(-c2ccc(F)cc2)c(C#N)s1` 224 nM

---

- system_tested: Autotaxin (Homo sapiens, UniProt Q13822)
- protocol_summary: Inhibition of recombinant human C-terminal V5/His6-tagged ATX expressed in HEK293 cells assessed as choline release at 0.5 uM using oleoyl-lysophosphatidylcholine as substrate incubated for 18 hrs by linear regression analysis
reported_property: Ki (µM)
One number for each entry, in µM.

Reported Ki, compound `CCCCCCCCCCCCCCCC(=O)N[C@@H](Cc1ccc(OCc2ncc(C)c(OC)c2C)cc1)[C@@H](O)CP(=O)(O)O` : ____ 0.39

---

- protocol_summary: Clearance in Lewis rat at 1 mg/kg, iv measured up to 24 hrs by LC-MS/MS analysis
- Format: ADME, organism-based
- details: in vivo
reported_property: clearance

GET /values?readout=clearance&item= `O=C(CCN1CCN(C(=O)OCc2cc(Cl)cc(Cl)c2)CC1)c1ccc2[nH]c(=O)oc2c1` 31 mL/min/kg
